molecular target: USP1 (construct USP1 (I-785, GG670, 671AA)/UAF1 (I-677)-Flag) (Homo sapiens (Human), UniProt O94782, G670A/G671A); assay: Ubiquitin-Rhodamine 110 assay for USP1 activity; format: biochemical; settings: USP1/UAF1 25 pM, Ub-Rh110 25 nM, 30 min preincubation
Sequence (O94782 whole entry G670A/G671A): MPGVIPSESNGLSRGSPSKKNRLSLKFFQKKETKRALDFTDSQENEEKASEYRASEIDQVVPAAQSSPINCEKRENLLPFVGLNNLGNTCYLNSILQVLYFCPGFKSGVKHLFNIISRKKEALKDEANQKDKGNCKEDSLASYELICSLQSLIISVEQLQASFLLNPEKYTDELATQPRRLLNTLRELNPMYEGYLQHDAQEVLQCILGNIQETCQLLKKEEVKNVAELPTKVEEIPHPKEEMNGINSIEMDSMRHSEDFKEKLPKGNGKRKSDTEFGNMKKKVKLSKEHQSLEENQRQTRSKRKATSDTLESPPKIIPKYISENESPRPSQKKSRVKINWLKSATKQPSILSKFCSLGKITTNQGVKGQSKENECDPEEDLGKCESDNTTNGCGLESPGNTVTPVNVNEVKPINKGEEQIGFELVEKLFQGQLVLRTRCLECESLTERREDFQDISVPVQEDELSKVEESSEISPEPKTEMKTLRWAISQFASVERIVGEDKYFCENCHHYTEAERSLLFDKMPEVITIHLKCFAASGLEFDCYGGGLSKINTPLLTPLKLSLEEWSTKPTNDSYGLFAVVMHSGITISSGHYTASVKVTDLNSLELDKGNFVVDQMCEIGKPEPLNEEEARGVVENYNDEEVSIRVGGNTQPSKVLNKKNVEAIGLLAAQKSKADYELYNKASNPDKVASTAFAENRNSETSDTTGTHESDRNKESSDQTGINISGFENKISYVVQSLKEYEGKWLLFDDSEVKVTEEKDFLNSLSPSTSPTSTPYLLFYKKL
Sequence (Q8TAF3 whole entry partner): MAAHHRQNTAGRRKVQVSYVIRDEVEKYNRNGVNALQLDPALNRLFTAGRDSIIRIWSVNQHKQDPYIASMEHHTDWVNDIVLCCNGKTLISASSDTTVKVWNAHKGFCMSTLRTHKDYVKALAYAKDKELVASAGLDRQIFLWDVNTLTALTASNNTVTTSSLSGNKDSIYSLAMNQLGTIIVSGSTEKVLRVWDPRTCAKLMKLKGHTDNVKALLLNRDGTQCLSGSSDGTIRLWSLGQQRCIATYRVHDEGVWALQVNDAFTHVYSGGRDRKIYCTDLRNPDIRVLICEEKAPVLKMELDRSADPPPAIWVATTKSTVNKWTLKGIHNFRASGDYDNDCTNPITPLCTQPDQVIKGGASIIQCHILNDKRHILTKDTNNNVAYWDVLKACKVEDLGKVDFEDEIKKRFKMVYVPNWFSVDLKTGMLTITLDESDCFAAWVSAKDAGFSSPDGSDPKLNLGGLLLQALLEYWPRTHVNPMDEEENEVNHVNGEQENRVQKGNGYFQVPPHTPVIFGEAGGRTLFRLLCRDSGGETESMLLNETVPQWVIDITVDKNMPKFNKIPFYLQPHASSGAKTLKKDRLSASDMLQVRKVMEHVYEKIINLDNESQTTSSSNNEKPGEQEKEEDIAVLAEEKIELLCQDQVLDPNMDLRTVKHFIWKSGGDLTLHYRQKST
pIC50: −log10 of the molar value.
readout label: pIC50

CC(C)c1ccccc1-c1ncc2[nH]c(=O)n(Cc3ccc(-c4nccn5ccnc45)cc3)c2n1 :: > 7.30
COCCn1cc(-c2ccc(Cn3c(=O)[nH]c4cnc(-c5ccccc5C(C)C)nc43)cc2)cn1 :: 6.70 to 7.30
CC(C)c1ccccc1-c1ncc2[nH]c(=O)n(Cc3ccc(-c4nc(N5CCOCC5)n(C)n4)cc3)c2n1 :: 6.70 to 7.30
CC(C)c1ccccc1-c1ncc2[nH]c(=O)n(Cc3ccc(-c4cn(C)cn4)cc3)c2n1 :: > 7.30
CC(C)c1ccccc1-c1ncc2[nH]c(=O)n(Cc3ccc(-c4nc(C5CCN(C)CC5)cn4C)cc3)c2n1 :: > 7.30
CC(C)c1ccccc1-c1ncc2[nH]c(=O)n([C@H](C)c3ccccc3)c2n1 :: 6.70 to 7.30

Please examine the following record next.
Q: Value lookup for pIC50; key = `CN(C)CCOc1ncccc1-c1ncc2[nH]c(=O)n(Cc3ccc(-c4nc(C(F)(F)F)cn4C)cc3)c2n1`
Result: 5.70 to 6.70
